Provide the recorded growth for the entries that follow.
System: LOX IMVI melanoma
Assay: NCI-60 one-dose screen, 48 h (100 = growth as untreated, 0 = no growth, -100 = all killed)
Settings: 10 µM unless noted
The panel holds about 83,000 compounds, 20% with a hit somewhere; the sample as a whole holds those more often. Calls of active or inactive are those of the source. How the source made its calls: active means growth percent below 10; inactive means the rest.

Observed growth on LOX IMVI melanoma, entry `CN(C)CCCc1ccc(Nc2cnn(C)c(=O)c2Cl)cc1` , equals 101% (inactive)

Observed growth on LOX IMVI melanoma, entry `FC(F)(F)c1cc2c(Cl)ncnc2n1CCC1CCOCC1` , equals -97% (active)

Observed growth on LOX IMVI melanoma, entry CC1=NN(C2=NC(=O)C(CC(=O)Nc3ccccc3C(F)(F)F)S2)C(c2ccc(N(C)C)cc2)C1 (stereo not drawn) , equals 46.3% (inactive)

Observed growth on LOX IMVI melanoma, entry `COc1ccc(N=Nc2c(N)nn3c(N)c(C#N)c(-c4ccc(C)cc4)nc23)cc1` , equals 50.1% (inactive)

Observed growth on LOX IMVI melanoma, entry Cc1ccc(O)cc1Nc1nc(SCCN2CCOCC2)nc2c1cnn2CC(Cl)c1ccc(Br)cc1 (stereo not drawn) , equals -88.4% (active)

Observed growth on LOX IMVI melanoma, entry `COc1cc(CNC(=O)C[C@H](C)CCC=C(C)C)ccc1OCc1cn(-c2ccc(Cl)c(Cl)c2)nn1` , equals 50.6% (inactive)

Observed growth on LOX IMVI melanoma, entry CNS(=O)(=O)N1CCc2c(Br)c3c(c(OC)c2C1CCc1ccccc1)OCO3 (stereo not drawn) , equals -95.1% (active)

Observed growth on LOX IMVI melanoma, entry `COc1cc2cc(C(=O)N3C[C@@H](CCl)c4c3cc(OC(=O)N(CCC(=O)N3CCN(C)CC3)[C@H]3CCSSC3)c3ccccc43)[nH]c2c(OC)c1OC` , equals -99.5% (active)

For each of the compounds below, note its growth.
1. CN(C)c1nc(NCCNS(=O)(=O)c2ccc(C(=O)/C=C/c3ccc(Cl)cc3)cc2)nc(N2CCOCC2)n1
2. O=c1[nH]c2ccccc2cc1CSc1ccccc1Nc1nccc(-c2ccc3c(c2)OCO3)n1
3. CC(C)C[C@H](NC(=O)CNC(=O)C[C@H]1O[C@@H]2OC3(C)CC[C@H]4[C@H](C)CC[C@@H]([C@H]1C)[C@@]24O3)B(O)O
4. O=C(CSc1nnc(-c2ccc(-c3nc4ccc(Cl)cc4[nH]3)cc2)o1)Nc1ccc(Cl)cc1
5. Clc1ccc2c(NCCNC34CC5CC(CC(C5)C3)C4)ccnc2c1

Marked response:
1: -94.3% (active); 2: 76.5% (inactive); 3: -83.6% (active); 4: -92.5% (active); 5: -91.5% (active)

----------
Provide the recorded growth for the entries that follow.
System: U251 CNS
Assay: NCI-60 one-dose screen, 48 h (100 = growth as untreated, 0 = no growth, -100 = all killed)
Conditions: 10 µM unless noted
The panel holds about 83,000 compounds, 20% with a hit somewhere; the sample as a whole holds those more often.
Give bare numbers, in %.

Looking up `COc1ccc(N=Nc2c(N)nn3c(N)c(C#N)c(-c4ccc(F)cc4)nc23)cc1` , I found its growth recorded as 48.7

For each of the compounds below, note its growth.
1. O=C(Nc1ccc(F)cc1)Nc1nc2ccc([N+](=O)[O-])cc2s1
2. NCCCCn1c(SCCc2c[nH]c3ccccc23)nnc1-c1ccc2ccccc2n1
3. COc1ccc(C(=O)c2c(N)c(C#N)cn2-c2ccc([N+](=O)[O-])cc2)cc1
4. CN1CCN(C(=O)CCN(C(=O)Oc2cc3c(c4ccccc24)[C@H](CCl)CN3C(=O)c2cc3cc(OCCCN4CCC4)ccc3[nH]2)[C@H]2CCSSC2)CC1
5. CC[C@]12C=CCN3CC[C@]4(C(=C(C(=O)OC)C1)Nc1cc(OC)c([C@@H]5[C@H]6O[C@H]6[C@@]6(CC)CC(C(=O)OC)=C7Nc8cc(OC)ccc8[C@@]78CCN5[C@@H]68)cc14)[C@@H]32
6. C/C(=N\Nc1ccc(S(N)(=O)=O)cc1)c1cnn(-c2cc(=O)[nH]c3ccc(Br)cc23)c1C
7. COc1cc(/C=N/NC(=O)c2ccc(OCc3nc4ccc(C)cc4[nH]3)cc2)cc(OC)c1OC

Marked response:
1. 6.53
2. -84.8
3. 111
4. -65.9
5. 48.4
6. 37.9
7. 29

----------
Test system: SK-OV-3 ovarian
Assay: NCI-60 one-dose screen, 48 h (100 = growth as untreated, 0 = no growth, -100 = all killed)
Conditions: 10 µM unless noted
This is part of a sample that, as a whole, favours compounds with a hit. Of some 83,000 tested, about 20% had one in any assay.
Measurement Type: growth (%)
One number for each entry, in %.

# example entries with known answers
Looking up `N#Cc1cc(-c2ccnc(Nc3ccc(N4CCN(C5COC5)CC4)cc3)n2)ccc1N1CCCC1` , I found its growth recorded as 52.8

Looking up `CC(C)(C)OC(=O)N1C/C(=C\c2ccc(F)cc2)C(=O)/C(=C/c2ccc(F)cc2)C1` , I found its growth recorded as 0.0941

For each of the compounds below, note its growth.
1. COc1ccc(C(=O)/C=C/c2ccc3c(c2)OCCO3)cc1S(N)(=O)=O
2. COc1ccc(NC(=O)Cn2c(/C=C/c3cccc(Br)c3)nc3ccccc3c2=O)cc1
3. O=C1Nc2ccc(F)cc2/C1=C/C(=O)c1cc2ccccc2oc1=O
4. C/C(=N\Nc1ccc(S(N)(=O)=O)cc1)c1cnn(-c2cc(=O)[nH]c3ccc(Br)cc23)c1C

Marked response:
[99, 36.4, 88.7, 69.2]

For each of the compounds below, note its growth.
1. COc1ccc(C(=O)c2c(N)c(C#N)cn2-c2ccc([N+](=O)[O-])cc2)cc1
2. Cc1cc(Cl)ccc1NC(=O)Nc1ccc(-c2ccc3c(c2)NC(=O)/C3=C\c2ccc[nH]2)cc1
3. COc1ccc2[nH]c(=O)c(CSc3ccccc3Nc3nccc(-c4ccc(Cl)cc4)n3)cc2c1

Marked response:
1: 93.9; 2: 125; 3: 57.7

----------
Test system: MDA-MB-468 breast
Experiment: NCI-60 one-dose screen, 48 h
Settings: 10 µM unless noted
This is part of a sample that, as a whole, favours compounds with a hit. Of some 83,000 tested, about 20% had one in any assay. Active and inactive are the calls of the source. How the source made its calls: active means growth percent below 10; inactive means the rest.
Parameter call: string, one of active, inactive

Here's what some known entries look like.
Exam item: For O=C(c1ccc(O)cc1)C1[C@H](c2ccccc2Br)[C@@H](c2ccccc2)NC12C(=O)Nc1ccccc12 (some centres undefined) , what call appears in the results of this test?
Marked response: active

Exam item: For COc1cc(C2CC(c3ccc(S(=O)(=O)NCCNc4nc(N(C)C)nc(N5CCOCC5)n4)cc3)=Nc3c(N)nc(N)nc3N2)cc(OC)c1OC (centres undefined) , what call appears in the results of this test?
Marked response: inactive

Exam item: For `CN1C(=O)/C(=C/c2ccco2)S/C1=N/c1nccs1` , what call appears in the results of this test?
Marked response: active

Exam item: For `NS(=O)(=O)c1ccc(Nc2nc(N/N=C/c3cc(Br)c(O)c(Br)c3)nc(Nc3ccccc3)n2)cc1` , what call appears in the results of this test?
Marked response: active

Exam item: For NS(=O)(=O)c1ccc(N2N=C(c3ccc(NC(=O)Nc4ccccc4)cc3)CC2c2ccc(Br)cc2)cc1 (centres undefined) , what call appears in the results of this test?
Marked response: active

---
Exam item: For `Cc1nc2sccn2c1-c1nnc(SCc2ccccc2)o1` , what call appears in the results of this test?
Marked response: inactive

Exam item: For `CCCCCCCCc1cccc(CC(=O)Nc2ccc(C)cc2C(=O)O)c1` , what call appears in the results of this test?
Marked response: inactive

Exam item: For `Cn1cc(-c2cc(N)n3nc(-c4c[nH]c5ccccc45)cc3n2)c2ccccc21` , what call appears in the results of this test?
Marked response: active

Exam item: For `COc1cc2cc(C(=O)N3C[C@@H](CCl)c4c3cc(OC(=O)N(CCC(=O)N3CCN(C)CC3)[C@H]3CCSSC3)c3ccccc43)[nH]c2c(OC)c1OC` , what call appears in the results of this test?
Marked response: active

----------
Provide the recorded growth for the entries that follow.
Test system: OVCAR-3 ovarian
Assay: NCI-60 one-dose screen, 48 h (100 = growth as untreated, 0 = no growth, -100 = all killed)
Conditions: 10 µM unless noted
The panel holds about 83,000 compounds, 20% with a hit somewhere; the sample as a whole holds those more often.
Give bare numbers, in %.

For each of the compounds below, note its growth.
1. COc1ccc(C(=O)c2c(N)c(C#N)cn2-c2ccc([N+](=O)[O-])cc2)cc1
2. Nc1ccc(-c2ccc3ncnc(N4CCc5cc(F)c(Cl)cc54)c3c2)cn1
3. Cn1ncc2c(N)nc(Oc3ccccc3-c3ccccc3)nc21
4. Cc1nn(-c2ccccc2)c2nc(C)n(C(=O)N/N=C/c3cccc([N+](=O)[O-])c3)c(=O)c12

Marked response:
1. 122
2. 4.61
3. 27.9
4. 99.8

Looking up `CCc1ccccc1-c1nc(CN[C@@H]2C[C@@H]3C[C@H]([C@H]2C)C3(C)C)c(C)o1` , I found its growth recorded as -61.6
